Biological target: Canine Parvovirus Type 2 (CPV2) (Canine parvovirus type 2)
Assay: cell-based or functional assay
Listed below: Invasion reduced by >50% at 5 µM NBX values for each entry.

Problem: I have this binder here, NBX0412 (VHH) VHH: QVQLQESGGGLVQAGGSLRLSCAVSGRTFSSYAMGWFRQAPGKEREYVAAINRFSGTYYADFVKGRFTISRDNAKNTVYLQMNSLKPEDTAVYYCAASRILGLSTAREDYNYWGQGTQVTVSS , and I need its recorded Invasion reduced by >50% at 5 µM NBX.
Result: ≤ 50%

Problem: I have this binder here, NBX0417 (VHH) VHH: QVQLQESGGGLVQPGGSLRLSCAASGSIFSINVMAWYRQAPGKEREYVASITRGGGDYYANSVKGRFTISRDNAKNAVYLQMNSLKPEDTAVYECNAQISQTISGDYRNYWGQGTQVTVSS , and I need its recorded Invasion reduced by >50% at 5 µM NBX.
Result: ≤ 50%

Problem: I have this binder here, NBX0411 (VHH) VHH: QVQLQESGGGLVQPGGSLRLSCAVSGLAFGRVAMAWYRQAPGKERELVARISSGGYTNYADSAKGRFTISRDNVKNLVYLQMNSLKFDDTAVYYCNSGWSGDYWGKGTLVTVSS , and I need its recorded Invasion reduced by >50% at 5 µM NBX.
Result: > 50%

Problem: I have this binder here, NBX0421 (VHH) VHH: QVQLQQSGGGLVQPGGSLRLSCAVSGLAFGRYAMAWYRQAPGKERELVARISNGGYTNYADSAKGRFTISRDNVKNTVYLEMNSLKFDDTAVYYCNSGWSGNYWGKGTLVTVSS , and I need its recorded Invasion reduced by >50% at 5 µM NBX.
Result: > 50%

Problem: I have this binder here, NBX0415 (VHH) VHH: QVQLQESGGGLVQAGGSLRLSCAASGRTFSSYAMGWFRQAPGKEREYVAAINRFGGTYYADFVKGRFTISRDNAKNTVYLQMNSLKPEDTAVYYCAASRILGLTTAREDYNYWGQGTQVTVSS , and I need its recorded Invasion reduced by >50% at 5 µM NBX.
Result: ≤ 50%

Problem: I have this binder here, NBX0430 (VHH) VHH: QVQLQQSGGGLVQAGGSLRLSCAASGLTFGSPAMAWYRQAPGKEREWVATISRGGSTYYADSVKGRFTISRDNAKNTSYLQMNSLKPEETAVYYCAAGLSSMRYDYWGQGTQVTVSS , and I need its recorded Invasion reduced by >50% at 5 µM NBX.
Result: ≤ 50%

Problem: I have this binder here, NBX0429 (VHH) VHH: QVQLQQSGGGLVQAGGSLRLSCAASGRTFSSYAMGWFRQAPGKEREYVAAINRFGGTYYADFVKGRFTISRDNAKNTVYLQMNSLKPEDTAVYYCAASGILGLSTAREDYNYWGQGTQVTVSS , and I need its recorded Invasion reduced by >50% at 5 µM NBX.
Result: ≤ 50%

Problem: I have this binder here, NBX0428 (VHH) VHH: QVQLQESGGGLVQAGGSLRLSCAASGSTSSINHIAWYRQAPGKQREWVATITSGGGSTYYTNSVKGRFTISRDNAKNTVYLQMNNLKPEDTAVYYCKANQAAGNKDYWGQGTQVTVSS , and I need its recorded Invasion reduced by >50% at 5 µM NBX.
Result: > 50%
